Documented pKi across a set of molecules
Molecular target: UniProtKB O43193
Experiment: Competitive radioligand binding assay (motilin receptor)
Parameters: purchased PerkinElmer (SignalScreen) 6110544; host or cells: CHO cells, stably transfected; membranes
Conditions: [125I]-motilin competition, membranes of CHO cells with human motilin receptor; read-out: Ki
Experimental: A. Competitive Radioligand Binding Assay (Motilin Receptor) The competitive binding assay at the human motilin receptor was carried out analogously to assays described in the literature. • Membranes were prepared from CHO cells stably transfected with the human motilin receptor and utilized at a quantity of 1.5 μg/assay point. […] Data are analyzed by GraphPad™ Prism® (GraphPad Software, San Diego, Calif.) using a variable slope non-linear regression analysis. […]
pKi: −log10 of the molar value.

These recorded examples may help you get a feel for the data.
{"molecule": "CC(C)[C@H]1NC(=O)[C@@H](Cc2cccc(Cl)c2)NCCOc2ccccc2CCCNC(=O)[C@H](CNC2=NCCCN2)NC1=O [Compound 521]", "endpoint value": "≥ 7.00"}
{"molecule": "CC(C)[C@H]1NC(=O)[C@@H](Cc2cccc(F)c2)N[C@@H](C)COc2ccccc2C[C@H](C)CNC(=O)[C@H](CNc2ncccn2)NC1=O [Compound 550]", "endpoint value": "≥ 8.00"}
{"molecule": "CC(C)[C@H]1NC(=O)[C@@H](Cc2cccc(F)c2)N[C@@H](C)COc2ccccc2CCCNC(=O)[C@H](Cn2cccc2)NC1=O [Compound 540]", "endpoint value": "≥ 8.00"}

The value of pKi measured for the molecule CCC[C@@H]1NC(=O)[C@@H](C(C)C)NC(=O)[C@@H](Cc2ccc(O)c(C(C)(C)C)c2)NCCOc2ccccc2CCCNC1=O [Compound 553] turned out to be ≥ 8.00

The value of pKi measured for the molecule CCC[C@@H]1NC(=O)[C@@H](CC)NC(=O)[C@@H](Cc2cccc(F)c2)N[C@@H](C)COc2ccccc2CCCNC1=O [Compound 558] turned out to be ≥ 8.00

The value of pKi measured for the molecule CC(C)[C@H]1NC(=O)[C@@H](Cc2cccc(Cl)c2)NCCOc2ccccc2C[C@H](C)CNC(=O)[C@H](CC2CC2)NC1=O [Compound 585] turned out to be ≥ 8.00

----------
assay: Plasma concentrations of compound 552 in beagle dogs during the CID study; type: in vivo; conditions: male, dog, iv, 7.5 mg/kg, 7.5 mg/kg 45-min infusion, last day of treatment
recorded metric: Cmax

The value of Cmax measured for the compound CCC[C@@H]1NC(=O)[C@@H](C(C)C)NC(=O)[C@@H](Cc2ccc(O)c(Cl)c2)N[C@@H](C)COc2ccccc2CCCNC1=O turned out to be ~5000 ng/mL

----------
molecular target: human motilin receptor (Homo sapiens); test: Competitive radioligand binding assay (motilin receptor); parameters: purchased PerkinElmer (SignalScreen) 6110544; host or cells: CHO cells, stably transfected; membranes; conditions: [125I]-motilin competition, membranes of CHO cells with human motilin receptor; read-out: Ki
Sequence (O43193 whole entry): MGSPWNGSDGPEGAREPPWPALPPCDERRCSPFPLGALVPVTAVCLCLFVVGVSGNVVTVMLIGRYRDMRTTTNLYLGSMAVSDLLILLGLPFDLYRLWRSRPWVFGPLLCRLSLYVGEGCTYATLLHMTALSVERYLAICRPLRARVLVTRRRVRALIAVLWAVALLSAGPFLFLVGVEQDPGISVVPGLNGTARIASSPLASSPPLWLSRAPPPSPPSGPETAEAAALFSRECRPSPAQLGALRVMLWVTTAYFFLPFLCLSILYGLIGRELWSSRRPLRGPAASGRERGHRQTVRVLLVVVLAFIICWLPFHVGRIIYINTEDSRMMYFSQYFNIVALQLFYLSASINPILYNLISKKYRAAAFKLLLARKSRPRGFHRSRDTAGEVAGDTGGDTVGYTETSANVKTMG
Documented Ki across a set of compounds

These recorded examples may help you get a feel for the data.
{"compound": "CC(C)[C@H]1NC(=O)[C@@H](Cc2cccc(C(F)(F)F)c2)NCCOc2ccccc2C[C@@H](C)CNC(=O)[C@H](CNC(=N)N)NC1=O [Compound 504]", "recorded metric": "Ki", "endpoint value": "≤ 100 nM"}
{"compound": "CCC[C@@H]1NC(=O)[C@@H](C(C)C)NC(=O)[C@@H](Cc2cccc(F)c2)N[C@H](C)COc2ccccc2CCCNC1=O [Compound 513]", "recorded metric": "Ki", "endpoint value": "≤ 100 nM"}
{"compound": "CC(C)[C@H]1NC(=O)[C@@H](Cc2cccc(F)c2)N[C@@H](C)COc2ccccc2CCCNC(=O)[C@H](CNc2ncccn2)NC1=O [Compound 535]", "recorded metric": "Ki", "endpoint value": "≤ 100 nM"}
{"compound": "CC(C)[C@H]1NC(=O)[C@@H](Cc2cccc(Cl)c2)NCCOc2ccccc2CCCNC(=O)[C@H](CN/C(N)=N/C#N)NC1=O [Compound 522]", "recorded metric": "Ki", "endpoint value": "≤ 100 nM"}
{"compound": "C[C@@H]1CNC(=O)[C@H](CC2CC2)NC(=O)[C@@H](C2CC2)NC(=O)[C@@H](Cc2cccc(F)c2)NCCOc2ccccc2C1 [Compound 566]", "recorded metric": "Ki", "endpoint value": "≤ 10 nM"}

In the following, a different compound is considered.
The value of Ki measured for the compound CC(C)[C@H]1NC(=O)[C@@H](Cc2cccc(F)c2)NCCOc2ccccc2CCCNC(=O)[C@H](CC2CC2)NC1=O [Compound 584] turned out to be ≤ 100 nM
